assay.protocol: HT29 colon tumor cell growth inhibition, primary screen, imaging, high content imaging, 48 h, CellTiter-Glo (AID 771);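 note: condensed means Hoechst nuclear area under control median minus 1.5 SD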
setup.conditions: HCS imaging cell count, measured here: percent cells with condensed nuclei, at 10 µM, stronger effect = higher value
Out of some 3,300 compounds screened, about 55 (2%) were called active. For the sample, actives were picked, then their nearest neighbours and some compounds at random.
Each record's condensed nuclei is compared with group 1: < 2%; group 2: ≥ 2% and < 5%; group 3: ≥ 5% to give its class.

Query: Category of CCCCCCCCNC(C)C(O)c1ccc(SC(C)C)cc1 (configuration not stated) :
Reply: group 3

Query: Moving on to CN1CCN(CCCN2c3ccccc3Sc3ccc(C(F)(F)F)cc32)CC1
Reply: group 3

Query: Entry to check: CCCCCCn1cc(C(=O)O)c(=O)c2ccccc21
Reply: group 2

Query: Also, CC(C)(C)c1ccc(C(O)CCCN2CCC(C(O)(c3ccccc3)c3ccccc3)CC2)cc1 (configuration not stated) please.
Reply: group 3

Query: Consider next the molecule CCN(CC)c1ccc2cc(C(=O)Nc3ccccn3)c(=O)oc2c1 in the same way.
Reply: group 2

Query: Also O=C(O)c1ccc(C2CCCCC2)cn1 , if possible.
Reply: group 1

Query: Let us now turn to CCOC(=O)CSC1=C(C#N)C(c2ccc3c(c2)OCO3)CC(=O)N1 (configuration not stated)
Reply: group 3

Query: Same for CN1CCN(CCCN2c3ccccc3Sc3ccc(Cl)cc32)CC1
Reply: group 1

Query: Would you mind doing COC(=O)c1[nH]c2cc(OC)ccc2c1NC(=O)CN1CCN(c2cccc(C)c2)C(C)C1 (configuration not stated) as well?
Reply: group 3

Query: Now this one: CN=C1c2cc3c(Br)c(OC)ccc3n2CCN1C
Reply: group 1

Query: Lookup CCOC(=O)c1ccccc1OCc1cc(/C=N/n2cncn2)ccc1OC
Reply: group 2

Query: Subsequent entry: Cc1cc(C)nc(NC2=NCC(=O)N2c2cccc(Cl)c2)n1
Reply: group 2

Query: Please answer likewise for CCN(CC)c1ccc2cc(-c3nnc(-c4ccncc4)o3)c(=O)oc2c1
Reply: group 1

Query: Another molecule to check: CC(=N\O)/C(CN(C)C)=N/O
Reply: group 2

Query: Could you do the same for CCCOC(=O)CSC1=C(C#N)C(c2ccc3c(c2)OCO3)CC(=O)N1 (configuration not stated) , please?
Reply: group 3

Query: Now this one: CCCn1nnc(NC(=O)c2cc(Br)cc(Br)c2OC)n1
Reply: group 3

Query: Another molecule to check: CC(COc1ccccc1)NC(C)C(O)c1ccc(O)cc1 (configuration not stated)
Reply: group 2

Query: Would you mind doing CC(NC(=O)c1ccc(=O)oc1)c1ccccc1 (configuration not stated) as well?
Reply: group 3

Query: Now the molecule CCOc1ccc(Cn2c(O)cc(=O)[nH]c2=O)cc1
Reply: group 1

Query: What do you get for COc1ccc(C(C)=O)cc1CSCCC(=O)O ?
Reply: group 1

Query: Same question, COc1cccc2c(=O)c(SC(F)(F)C(F)C(F)(F)F)c(C)[nH]c12 (configuration not stated) this time
Reply: group 3

Query: Please give the result for CSc1ccc2c(c1)N(CCC1CCCCN1C)c1ccccc1S2 (configuration not stated) too.
Reply: group 2

Query: Next molecule: O=C(CCN1CCc2ccccc2CC1)c1ccc2c(c1)OCCO2
Reply: group 1

Query: Now the molecule C[C@]12CC[C@@H]3c4ccc(O[C@@H]5O[C@H](C(=O)O)[C@@H](O)[C@H](O)[C@H]5O)cc4CC[C@H]3[C@@H]1C[C@@H](O)[C@@H]2O
Reply: group 1

Query: # iterate: Cn1c(=NCC(O)COc2ccccc2)sc2ccccc21 (configuration not stated)
Reply: group 2

Query: Can you handle CC1(C)Cc2c(c(-c3ccccc3)[nH]c(=O)c2C#N)CS1 next?
Reply: group 2

Query: Proceed to CCCSc1ccc2nc(NC(=O)OC)[nH]c2c1
Reply: group 3

Query: Next: COC(=O)c1[nH]c2cc(OC)ccc2c1NC(=O)CN1CCC(C(N)=O)CC1
Reply: group 2

Query: Same question, CCCCC(=O)NC(Nc1ccc(C)cn1)(C(=O)OCC)C(F)(F)F (configuration not stated) this time
Reply: group 2

Query: Consider next the molecule Fc1ccc(-c2cnc[nH]2)cc1 in the same way.
Reply: group 1

Query: Lookup CCOc1ccc(C2C(C(=O)c3ccc(C)o3)=C(O)C(=O)N2CCCN(CC)CC)cc1 (configuration not stated)
Reply: group 1

Query: How about OCCN1CCN(CCCN2c3ccccc3Sc3ccc(C(F)(F)F)cc32)CC1 ?
Reply: group 3
